B1: CPEB3 Ribozyme (parent)
chain: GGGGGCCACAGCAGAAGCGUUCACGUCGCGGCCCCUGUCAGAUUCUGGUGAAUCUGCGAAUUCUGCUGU

variants of: B1; test: self-cleavage, relative activity (ratio to wild type); higher = more cleavage; co-transcriptional
Kindly state self-cleavage for each of the entries shown.

Q) Consider the variant C7U A52U and give its measured self-cleavage.
A) 0.91

Q) Lookup A16G U21A
A) 0.92

Q) Lookup G4A C6U
A) 0.426

Q) Lookup A10C U43C
A) 0.965

Q) Lookup A10U G56A
A) 1.01

Q) Lookup C6U G31A
A) 1.02
